All values here come from patent US6737383B1.

# Tested on: velvetleaf
# procedure summary: Test B pre/postemergence velvetleaf
# Assay type: in vivo, Abutilon theophrasti
# condition details: Rate 250 g/ha, Postemergence; scale of 0 to 10 where 0 is no effect and 10 is complete control
# Description: […] At the same time, these crop and weed species were also treated with postemergence applications of test chemicals formulated in the same manner. […] Treated plants and controls were maintained in a greenhouse for twelve to sixteen days, after which all species were compared to controls and visually evaluated. […]
This listing pairs compounds with measured Plant response rating, Velvetleaf.
property label: Plant response rating, Velvetleaf

# smi, property label, measurement
records = [
    ("CC(C)N(C(=O)n1oc(=O)n(CC2CCC2)c1=O)c1ccc(Cl)cc1", "Plant response rating, Velvetleaf", 0),
    ("CC(C)N(C(=O)n1oc(=O)n(C[Si](C)(C)C)c1=O)c1ccc(Cl)cc1", "Plant response rating, Velvetleaf", 0),
    ("CC(C)N(C(=O)n1oc(=O)n(CCc2ccccc2)c1=O)c1ccccc1", "Plant response rating, Velvetleaf", 0),
    ("C=CCCCn1c(=O)on(C(=O)N(c2ccccc2)C(C)C)c1=O", "Plant response rating, Velvetleaf", 2),
    ("CC(=O)OCCCCn1c(=O)on(C(=O)N(c2ccc(Cl)cc2)C(C)C)c1=O", "Plant response rating, Velvetleaf", 0),
    ("CC(C)N(C(=O)n1oc(=O)n(Cc2ccccc2-c2ccccc2)c1=O)c1ccc(F)cc1", "Plant response rating, Velvetleaf", 0),
]

* * *

Listed here: items and their measured Plant response rating, Redroot pigweed.
# Test system: pigweed
# procedure summary: Test B pre/postemergence pigweed
# Format: in vivo, Amaranthus retroflexus
# condition details: Preemergence, Rate 125 g/ha; scale of 0 to 10 where 0 is no effect and 10 is complete control
# Experimental: […] At the same time, these crop and weed species were also treated with postemergence applications of test chemicals formulated in the same manner. […] Treated plants and controls were maintained in a greenhouse for twelve to sixteen days, after which all species were compared to controls and visually evaluated. […]
property label: Plant response rating, Redroot pigweed

# compound, measurement
data = [
    ("CC(C)N(C(=O)n1oc(=O)n(CCC#N)c1=O)c1ccc(Cl)cc1", 10),
    ("CC(C)Cn1c(=O)on(C(=O)N(c2ccccc2)C(C)C)c1=O", 0),
    ("CC(C)N(C(=O)n1oc(=O)n(CCCCl)c1=O)c1ccc(F)cc1", 7),
    ("CCOP(=O)(Cn1c(=O)on(C(=O)N(c2ccccc2)C(C)C)c1=O)OCC", 0),
    ("CC(C)N(C(=O)n1oc(=O)n(C(C)C#N)c1=O)c1ccccc1 (centres unmarked)", 2),
]

* * *

# Test system: crabgrass
# procedure summary: Test B pre/postemergence crabgrass
# Assay type: in vivo, Digitaria sanguinalis
# condition details: Rate 125 g/ha; Postemergence; scale 0 to 10, 0 no effect, 10 complete control
property label: Crabgrass plant response rating

# smi, measurement
data = [
    ("Cc1nn(C)c(C)c1-n1c(=O)on(C(=O)N(c2ccc(F)cc2F)C(C)C)c1=O", 4),
    ("COc1ccc(-n2c(=O)on(C(=O)N(c3ccc(F)cc3)C(C)C)c2=O)c(OC)c1", 2),
    ("CCN(CC)C(=O)n1oc(=O)n(-c2ccc(F)cc2)c1=O", 0),
    ("Cc1ccccc1-n1c(=O)on(C(=O)N(c2ccc(F)cc2)C2CC2)c1=O", 0),
]
